Assay: Tanguay_ZF_120hpf_TRUN_legacy: (Legacy) Oregon State University Tanguay Lab 120 Hour Post-fertilization zebrafish Assay for Truncated Body (AID 2283655)
Results filed as inconclusive are left out. Calls of active or inactive are those of the source. Rule for the calls: active = hit-call score of the fitted dose curve at least 0.9, where 1 is the maximum; inconclusive = response in the unintended direction; inactive = score below 0.9.
Outcome field: choose from TRUE (active), FALSE (inactive)

Check the results log: what was the call for CCCCCCCC[Si](OCC)(OCC)OCC ? FALSE

GET /call?item= OCCO returns the recorded outcome of this test. FALSE

Record request — test call for CCCCOC(=O)c1ccc(O)cc1 TRUE

Returns: the outcome recorded for Cc1cc(F)ccc1-c1cc(N2CC[C@@H](O)[C@H]2CO)ncc1N(C)C(=O)C(C)(C)c1cc(C(F)(F)F)cc(C(F)(F)F)c1 in this assay. FALSE

What did the test return for OC12N=C(c3ccccc3)SC1Cc1cc(Cl)ccc12 (stereo not drawn) ? TRUE

Recorded test call requested for c1ccc2n[nH]nc2c1 FALSE

Which outcome was entered for the molecule CCCCCc1ccc(N)cc1 in this test? FALSE

Write down the call the test reported for this molecule. Item: O=C1O[C@H]([C@@H](O)CO)C(O)=C1O FALSE

How was CCOC(=O)O[C@H](C)OC(=O)c1ccc2c(c1)cc(C(=O)NC1CCN(C(C)C)CC1)n2Cc1cc(-c2ccc(Cl)s2)on1 classified in this test? FALSE

Dear colleague, could you share the recorded outcome for O=C=NCCCCCCN=C=O when you have a moment? FALSE

Recorded test outcome, item Cc1occc1C(=O)Nc1ccc(C(=O)N2CCC(F)(F)/C(=C\C(=O)N3CCC(N4CCCCC4)CC3)c3ccccc32)cc1 FALSE

Please let me know the test result on file for COc1cc(C(=O)NC2CCN(C)CC2)ccc1Nc1ncc2c(n1)N(C1CCCC1)CC(F)(F)C(=O)N2C . TRUE

Recorded test call requested for CCCCCCCCOC(=O)c1cc(O)c(O)c(O)c1 FALSE

Could you check what this test reported for O=CCCCC=O ? FALSE

Test call for this molecule, please: CN(C)c1ccc(C(=C2C=CC(=[N+](C)C)C=C2)c2ccc(N(C)C)cc2)cc1 FALSE

Can you look up the reported call for O=c1c(-c2ccc(O)cc2)coc2cc(O)cc(O)c12 for me? FALSE

// return assay outcome for CC(=O)N1CCN(c2ccc(OC[C@H]3CO[C@](Cn4ccnc4)(c4ccc(Cl)cc4Cl)O3)cc2)CC1 FALSE

Called result for c1ccc2ccccc2c1 FALSE

###

Assay: CEETOX_H295R_CORTIC: CeeTox H295R High-throughput Steroidogenesis Assay for Corticosterone (CORTIC) (AID 2283437);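 note: corticosterone secreted into medium quantified by mass spectrometry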
Details: actives raise or lower the signal
The source made the active and inactive calls. Rule for the calls: active = hit-call score of the fitted dose curve at least 0.9, where 1 is the maximum; inactive = score below 0.9.
Use one of these outcomes when replying: active, inactive

Query: recorded result category for Clc1ccccc1C(c1ccccc1)(c1ccccc1)n1ccnc1 in this test active

Could you kindly confirm the outcome this assay logged for C[C@]12CC[C@@H]3c4ccc(O)cc4CC[C@H]3[C@@H]1CC[C@H]2O ? active

In this assay, the call recorded for Cc1cc2c(cc1C(F)(F)F)N(C(=O)Nc1ccc(Oc3cccnc3C)nc1)CC2 was what? inactive

In this assay, the call recorded for O=c1c(-c2ccc(O)cc2)coc2cc(O)cc(O)c12 was what? inactive

# lookup: test call for O=C(O)Cn1c(=O)n(Cc2ccc(Br)cc2F)c(=O)c2ccc(Cl)cc21 inactive

Any idea what this test logged for Clc1cc(Cl)c2c(c1)N=C1CCCCCN1C2 ? inactive

Kindly provide the recorded test outcome for the following compound: O=C(Nc1ccc(Cl)cc1)Nc1ccc(Cl)c(Cl)c1 inactive

Short answer needed: outcome of this test for CN1C(=O)N(c2ccccc2Br)Cc2cnc(Nc3ccc4c(c3)OCC(CO)O4)nc21 (stereo not drawn) ? inactive

###

Read-out: E-selectin (Homo sapiens) (UniProt P16581)
Sequence (P16581 whole entry, looked up): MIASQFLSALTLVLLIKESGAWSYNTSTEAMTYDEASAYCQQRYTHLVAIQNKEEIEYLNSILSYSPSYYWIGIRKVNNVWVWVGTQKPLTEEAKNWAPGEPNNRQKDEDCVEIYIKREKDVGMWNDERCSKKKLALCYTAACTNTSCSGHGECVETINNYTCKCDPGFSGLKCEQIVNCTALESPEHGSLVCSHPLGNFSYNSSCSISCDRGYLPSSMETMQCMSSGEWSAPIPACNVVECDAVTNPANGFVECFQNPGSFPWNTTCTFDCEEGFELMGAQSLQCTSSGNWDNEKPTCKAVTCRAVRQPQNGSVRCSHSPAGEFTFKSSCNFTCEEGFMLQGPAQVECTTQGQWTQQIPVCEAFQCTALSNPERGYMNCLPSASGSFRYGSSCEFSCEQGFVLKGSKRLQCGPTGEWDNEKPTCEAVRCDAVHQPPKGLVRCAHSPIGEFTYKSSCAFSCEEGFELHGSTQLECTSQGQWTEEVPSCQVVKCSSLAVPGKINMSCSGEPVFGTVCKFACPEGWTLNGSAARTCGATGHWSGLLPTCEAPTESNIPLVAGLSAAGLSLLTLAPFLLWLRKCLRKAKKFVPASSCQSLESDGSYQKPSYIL
Assay: BSK_SAg_Eselectin: BioMAP Diversity Plus: SAg Assay for Eselectin Biomarker Activity (AID 2283091)
Conditions: primary human HUVEC with PBMC; actives raise or lower the signal
The source made the active and inactive calls. The calls were made as follows: active = hit-call score of the fitted dose curve at least 0.9, where 1 is the maximum; inactive = score below 0.9.
Respond using exactly one of the listed classes: Y for active, N for inactive

Identify the outcome logged in this assay for the compound shown: O=c1[nH]sc2ccccc12 Y

Record lookup: outcome of this test for Cc1c2ccccc2c(C)c2c1ccc1ccccc12 ? Y

Hey, what did the test say about O=C=NCCCCCCN=C=O ? N

Dear colleague, could you share the recorded outcome for CCCCCCCCN(C)CCCCCCCC when you have a moment? N

What did the test return for CCCOC(=O)c1cc(O)c(O)c(O)c1 ? Y

GET /call?item= O=C(O)c1ccccc1C(=O)OCc1ccccc1 returns the recorded outcome of this test. N

Recorded test outcome, item CCCCCCCCCCCC[N+](C)(C)C Y

GET /call?item= COc1cccc([C@H](O)C2CCN(CCc3ccc(F)cc3)CC2)c1OC returns the recorded outcome of this test. N

Assay outcome for COCC(C)OCC(C)OCC(C)O (configuration not stated) : what was it? N

Outcome? CC[C@@H]1C[C@H](N(Cc2cc(C(F)(F)F)cc(C(F)(F)F)c2)C(C)=O)c2cc(C(F)(F)F)ccc2N1C(=O)OC(C)C N

Hi, do you know how O=C1O[C@H]([C@@H](O)CO)C(O)=C1O came out in this test? N

What outcome does the record of this test show for CC(C)(O)c1ccc(CNC(=O)c2cccnc2Oc2ccc3nonc3c2)cc1 ? Y

State the result this test recorded for O=C(OCCCCCCOC(=O)c1ccccc1)c1ccccc1 . N

Returns: the outcome recorded for O=C1c2ccccc2C(=O)N1CCc1noc(-c2ccc(CN3CCCCCC3)s2)n1 in this assay. Y

What classification did Cc1ncc(CO)c(CO)c1O end up with in this test? N

Hi, sorry to bother you, what did the test record for O=C(Nc1ccc(Cl)cc1)Nc1ccc(Cl)c(Cl)c1 ? Y

What outcome does the record of this test show for CN(C[C@@H](CC[N+]12CCC(C3CCCCC3)(CC1)CC2)c1ccc(Cl)c(Cl)c1)C(=O)c1cc(C(F)(F)F)cc(C(F)(F)F)c1 ? Y

Hi, sorry to bother you, what did the test record for CCCCCCCCCCCO ? N

Hi, do you know how CC/C(=C(/CC)c1ccc(O)cc1)c1ccc(O)cc1 came out in this test? Y

Look up the recorded call for CC[C@H](NC(=O)c1cc(F)ccc1NS(=O)(=O)c1cccc2cccnc12)c1ccccc1 in this test. Y

Record lookup: outcome of this test for O=C1CCC(C2CCCCC2)CC1 ? N

What call does the record list for CC(C)(C)c1cc(/C=C2\SC(N)=NC2=O)cc(C(C)(C)C)c1O ? Y

Fill in: this test's call for c1ccc2ccccc2c1 is ___ N

For CN(C)c1ccc(C(=C2C=CC(=[N+](C)C)C=C2)c2ccc(N(C)C)cc2)cc1 , which call appears in the assay record? Y

Field: outcome | Entry: CC(=O)N1CCN(c2ccc(OC[C@H]3CO[C@](Cn4ccnc4)(c4ccc(Cl)cc4Cl)O3)cc2)CC1 Y

I'd appreciate the recorded outcome for CCCCOC(=O)c1ccc(O)cc1 from this test. N

Given CC1(C)NC(=O)N(c2ccc([N+](=O)[O-])c(C(F)(F)F)c2)C1=O , state the outcome it received in this test. N

Record request — test call for OC12N=C(c3ccccc3)SC1Cc1cc(Cl)ccc12 (configuration not stated) N

Recorded test call requested for CCCCCCCCCC(=O)O N

# lookup: test call for COc1cc(C(=O)NC2CCN(C)CC2)ccc1Nc1ncc2c(n1)N(C1CCCC1)CC(F)(F)C(=O)N2C Y

Which result was noted for this compound in the test: CC1=CC(=O)/C(=C(/C)O)C(=O)O1 N

Name the outcome recorded for Cc1ccc(C(C)C)cc1 in the assay. N

Test call, this compound: CCCCCCCCCCCCO Y

Record lookup: outcome of this test for CCCCCc1ccc(N)cc1 ? N

Lab log entry: CCOC(=O)O[C@H](C)OC(=O)c1ccc2c(c1)cc(C(=O)NC1CCN(C(C)C)CC1)n2Cc1cc(-c2ccc(Cl)s2)on1 — outcome as called in the assay? Y

What is the recorded call for this compound in the test? C[C@]12CC[C@@H]3c4ccc(O)cc4CC[C@H]3[C@@H]1CC[C@H]2O N

What outcome does the record of this test show for O=CCCCC=O ? Y

###

Assay: BSK_3C_uPAR: BioMAP Diversity Plus: 3C Assay for Urokinase-type plasminogen activator receptor (uPAR) Biomarker Activity (AID 2282998)
Conditions: BioMAP 3C HUVEC, uPAR biomarker ELISA; actives raise or lower the signal
Activity calls are given as the source filed them. Rule for the calls: active = hit-call score of the fitted dose curve at least 0.9, where 1 is the maximum; inactive = score below 0.9.
The categories you may choose from are 1 for active, -1 for inactive

# fetch the recorded call for C[C@]12CC[C@@H]3c4ccc(O)cc4CC[C@H]3[C@@H]1CCC2=O here -1

# fetch the recorded call for O=C1O[C@H]([C@@H](O)CO)C(O)=C1O here -1

Any idea what this test logged for O=C(O)c1ccccc1C(=O)OCc1ccccc1 ? -1

Test call, this compound: O=C(OCCCCCCOC(=O)c1ccccc1)c1ccccc1 -1

Please indicate how the test categorized CN(C)C(=O)C1(N2CCCCC2)CCN(CC[C@@]2(c3ccc(Cl)c(Cl)c3)CN(C(=O)c3ccccc3)CCO2)CC1 . 1
